Experiment Notes: Volume of distribution at steady state in mouse at 1 mg/kg, iv and 10 mg/kg, po
Type: ADME, organism-based
Conditions Used: in vivo, read-out: Vdss
Property Name: Vd (L/kg)
Numeric only. Scale: L/kg

# Vd (compound: Cc1ncsc1C(=O)N(Cc1cc(=O)[nH]c2c(F)cccc12)c1cccc(Cl)c1 ) is 1.6

====

Experiment Notes: Cmax in mouse at 1 mg/kg, iv and 10 mg/kg, po
Type: ADME, organism-based
Conditions Used: in vivo
Property Name: Cmax (ng/mL)
Numeric only. Scale: ng/mL

# Cmax (compound: Cc1ncsc1C(=O)N(Cc1cc(=O)[nH]c2c(F)cccc12)c1cccc(Cl)c1 ) is 1400

====

Experiment Notes: AUC in rhesus monkey at 3 mg/kg, iv and 10 mg/kg, po
Type: ADME, organism-based, Macaca mulatta
Conditions Used: plasma
Property Name: AUC (ng·h/mL)
Numeric only. Scale: ng·h/mL

# AUC (compound: CC(C)Cc1nc2nccnc2n1Cc1cc(=O)[nH]c2c(F)c(F)ccc12.Cl ) is 3200

# AUC (compound: Cl.O=c1cc(Cn2c(C3CC(F)(F)C3)nc3nccnc32)c2cccc(F)c2[nH]1 ) is 21000

# AUC (compound: Cl.O=c1cc(Cn2c(C3CCC3)nc3nccnc32)c2ccc(F)c(F)c2[nH]1 ) is 18000

# AUC (compound: Cl.O=c1cc(Cn2c(C3CCC3)nc3nccnc32)c2cccc(F)c2[nH]1 ) is 23000

====

Give measured bioavailability for each item. Keep answers brief.
Experiment Notes: Oral bioavailability in mouse at 10 mg/kg
Type: ADME, organism-based
Conditions Used: in vivo
Numeric only. Scale: %

# bioavailability (compound: CC(C)Cc1nc2nccnc2n1Cc1cc(=O)[nH]c2c(F)c(F)ccc12 ) is 39

# bioavailability (compound: Cc1ncsc1-c1nc2ccccc2n1Cc1cc(=O)[nH]c2c(F)c(F)ccc12 ) is 39

# bioavailability (compound: O=c1cc(Cn2c(C3CC(F)(F)C3)nc3nccnc32)c2cccc(F)c2[nH]1 ) is 55

# bioavailability (compound: CC(C)c1nc2ccccc2n1Cc1cc(=O)[nH]c2c(F)c(F)ccc12 ) is 58

# bioavailability (compound: O=c1cc(Cn2c(C3CCC3)nc3nccnc32)c2cccc(F)c2[nH]1 ) is 91

# bioavailability (compound: O=c1cc(Cn2c(C3CCC3)nc3nccnc32)c2ccc(F)c(F)c2[nH]1 ) is 62

# bioavailability (compound: Cc1ncsc1C(=O)N(Cc1cc(=O)[nH]c2c(F)cccc12)c1cccc(Cl)c1 ) is 7

# bioavailability (compound: CC(C)Cc1nc2ccccc2n1Cc1cc(=O)[nH]c2c(F)c(F)ccc12 ) is 81

====

Organism: Homo sapiens
Experiment Notes: Ratio of IC50 for human eNOS to EC50 for human iNOS
Rule: criterion met for Ratio EC50 not less than 4, criterion not met for anything less.

Check the entry O=c1cc(Cn2c(-c3ccccn3)nc3ccccc32)c2ccc(F)c(F)c2[nH]1 : does Ratio EC50 equal or exceed 4?
criterion met

Check the entry O=c1cc(Cn2c(C3CCC3)nc3c(Cl)ccnc32)c2ccc(F)c(F)c2[nH]1 : does Ratio EC50 equal or exceed 4?
criterion met

Check the entry O=c1cc(Cn2c(CC3CCC3)nc3ccccc32)c2ccc(F)c(F)c2[nH]1 : does Ratio EC50 equal or exceed 4?
criterion met

Check the entry Cc1cnccc1-c1nc2ccccc2n1Cc1cc(=O)[nH]c2c(F)c(F)ccc12 : does Ratio EC50 equal or exceed 4?
criterion not met

Check the entry CC(C)c1nc2ccccc2n1Cc1cc(=O)[nH]c2c(F)c(F)ccc12 : does Ratio EC50 equal or exceed 4?
criterion met

Check the entry Cc1ccnc2c1nc(C1CCC1)n2Cc1cc(=O)[nH]c2c(F)c(F)ccc12 : does Ratio EC50 equal or exceed 4?
criterion met

Check the entry O=c1cc(Cn2c(CC3CCCC3)nc3ccccc32)c2ccc(F)c(F)c2[nH]1 : does Ratio EC50 equal or exceed 4?
criterion met

Check the entry Cn1cncc1-c1nc2ccccc2n1Cc1cc(=O)[nH]c2c(F)c(F)ccc12 : does Ratio EC50 equal or exceed 4?
criterion not met

Check the entry O=c1cc(Cn2c(C3CC3)nc3ccccc32)c2ccc(F)c(F)c2[nH]1 : does Ratio EC50 equal or exceed 4?
criterion met

====

Give measured bioavailability for each item. Keep answers brief.
Experiment Notes: Bioavailability in rhesus monkey at 3 mg/kg, iv and 10 mg/kg, po
Assay type: ADME, organism-based, Macaca mulatta
Conditions Used: in vivo

# bioavailability (compound: Cl.O=c1cc(Cn2c(C3CCC3)nc3nccnc32)c2ccc(F)c(F)c2[nH]1 ) is 63%

# bioavailability (compound: Cl.O=c1cc(Cn2c(C3CCC3)nc3nccnc32)c2cccc(F)c2[nH]1 ) is 93%

# bioavailability (compound: CC(C)Cc1nc2nccnc2n1Cc1cc(=O)[nH]c2c(F)c(F)ccc12.Cl ) is 59%

# bioavailability (compound: Cl.O=c1cc(Cn2c(C3CC(F)(F)C3)nc3nccnc32)c2cccc(F)c2[nH]1 ) is 100%

====

Measured On: Cytochrome P450 1A2 (Homo sapiens)
Sequence (P05177 whole entry): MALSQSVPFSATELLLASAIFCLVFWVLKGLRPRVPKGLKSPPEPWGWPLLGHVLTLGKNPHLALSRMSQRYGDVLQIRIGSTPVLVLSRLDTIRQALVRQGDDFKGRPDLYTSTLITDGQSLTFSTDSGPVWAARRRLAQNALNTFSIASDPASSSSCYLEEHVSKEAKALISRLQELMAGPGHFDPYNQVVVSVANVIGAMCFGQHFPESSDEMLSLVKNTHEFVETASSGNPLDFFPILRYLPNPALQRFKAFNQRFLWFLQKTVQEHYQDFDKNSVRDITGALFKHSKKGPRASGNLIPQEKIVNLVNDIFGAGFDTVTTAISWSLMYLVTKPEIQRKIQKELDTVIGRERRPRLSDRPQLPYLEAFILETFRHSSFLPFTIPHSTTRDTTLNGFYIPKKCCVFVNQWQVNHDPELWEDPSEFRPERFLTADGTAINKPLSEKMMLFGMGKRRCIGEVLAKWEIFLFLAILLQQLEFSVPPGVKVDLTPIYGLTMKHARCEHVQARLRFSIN
Experiment Notes: Inhibition of human CYP1A2
Give measured EC50 for each item. Keep answers brief.

Entry O=c1cc(Cn2c(C3CC(F)(F)C3)nc3nccnc32)c2cccc(F)c2[nH]1 : EC50 on Cytochrome P450 1A2 (Homo sapiens) = 35 µM

Entry CC(C)Cc1nc2nccnc2n1Cc1cc(=O)[nH]c2c(F)c(F)ccc12 : EC50 on Cytochrome P450 1A2 (Homo sapiens) = > 100 µM

Entry O=c1cc(Cn2c(C3CCC3)nc3nccnc32)c2cccc(F)c2[nH]1 : EC50 on Cytochrome P450 1A2 (Homo sapiens) = > 100 µM

Entry O=c1cc(Cn2c(C3CCC3)nc3nccnc32)c2ccc(F)c(F)c2[nH]1 : EC50 on Cytochrome P450 1A2 (Homo sapiens) = > 100 µM

====

Give measured half-life for each item. Keep answers brief.
Experiment Notes: Half life in rhesus monkey at 3 mg/kg, iv and 10 mg/kg, po
Assay type: ADME, organism-based, Macaca mulatta
Conditions Used: in vivo
Numeric only. Scale: h

# half-life (compound: Cl.O=c1cc(Cn2c(C3CC(F)(F)C3)nc3nccnc32)c2cccc(F)c2[nH]1 ) is 6.6

# half-life (compound: CC(C)Cc1nc2nccnc2n1Cc1cc(=O)[nH]c2c(F)c(F)ccc12.Cl ) is 21

# half-life (compound: Cl.O=c1cc(Cn2c(C3CCC3)nc3nccnc32)c2cccc(F)c2[nH]1 ) is 6.8

# half-life (compound: Cl.O=c1cc(Cn2c(C3CCC3)nc3nccnc32)c2ccc(F)c(F)c2[nH]1 ) is 13

====

Experiment Notes: Plasma clearance in rhesus monkey at 3 mg/kg, iv and 10 mg/kg, po
Type: ADME, organism-based, Macaca mulatta
Property Name: clearance (mL/min/kg)
Numeric only. Scale: mL/min/kg

# clearance (compound: CC(C)Cc1nc2nccnc2n1Cc1cc(=O)[nH]c2c(F)c(F)ccc12.Cl ) is 18

# clearance (compound: Cl.O=c1cc(Cn2c(C3CC(F)(F)C3)nc3nccnc32)c2cccc(F)c2[nH]1 ) is 8.6

# clearance (compound: Cl.O=c1cc(Cn2c(C3CCC3)nc3nccnc32)c2cccc(F)c2[nH]1 ) is 4.3

# clearance (compound: Cl.O=c1cc(Cn2c(C3CCC3)nc3nccnc32)c2ccc(F)c(F)c2[nH]1 ) is 6

====

Experiment Notes: Plasma clearance in mouse at 1 mg/kg, iv and 10 mg/kg, po
Format: ADME, organism-based
Property Name: clearance

# clearance (compound: Cc1ncsc1C(=O)N(Cc1cc(=O)[nH]c2c(F)cccc12)c1cccc(Cl)c1 ) is > 100 mL/min/kg

====

Species: Homo sapiens
Experiment Notes: Ratio of IC50 for human nNOS to EC50 for human iNOS
Property Name: Ratio EC50
// no unit string in output, number only

# Ratio EC50 (molecule: O=c1cc(Cn2c(C3CCC3)nc3ncccc32)c2ccc(F)c(F)c2[nH]1 ) is 0.9

# Ratio EC50 (molecule: O=c1cc(Cn2c(C3CCC3)nc3c(C(F)(F)F)ccnc32)c2ccc(F)c(F)c2[nH]1 ) is 13

# Ratio EC50 (molecule: CC(C)Cc1nc2nccnc2n1Cc1cc(=O)[nH]c2c(F)cccc12 ) is 23

# Ratio EC50 (molecule: CC(C)CCc1nc2ccccc2n1Cc1cc(=O)[nH]c2c(F)c(F)ccc12 ) is 0.5

# Ratio EC50 (molecule: O=c1cc(Cn2c(-c3ccncc3)nc3ccccc32)c2ccc(F)c(F)c2[nH]1 ) is 1.3

# Ratio EC50 (molecule: O=c1cc(Cn2c(C3CCCC3)nc3nccnc32)c2ccc(F)c(F)c2[nH]1 ) is 3.6

# Ratio EC50 (molecule: O=c1cc(Cn2c(C3CCC3)nc3cccnc32)c2ccc(F)c(F)c2[nH]1 ) is 7.2

# Ratio EC50 (molecule: O=c1cc(Cn2c(C3CCC3)nc3c(Cl)ccnc32)c2ccc(F)c(F)c2[nH]1 ) is 2.8

# Ratio EC50 (molecule: O=c1cc(Cn2c(C3CCC3)nc3cnccc32)c2ccc(F)c(F)c2[nH]1 ) is 1.3

# Ratio EC50 (molecule: O=c1cc(Cn2c(C3CC(F)(F)C3)nc3nccnc32)c2ccc(F)c(F)c2[nH]1 ) is 9.2

# Ratio EC50 (molecule: Cc1cnccc1-c1nc2ccccc2n1Cc1cc(=O)[nH]c2c(F)c(F)ccc12 ) is 2.9

# Ratio EC50 (molecule: COc1ccnc2c1nc(C1CCC1)n2Cc1cc(=O)[nH]c2c(F)c(F)ccc12 ) is 6.2

# Ratio EC50 (molecule: O=c1cc(Cn2c(C3CCCC3)nc3ccccc32)c2ccc(F)c(F)c2[nH]1 ) is 1

# Ratio EC50 (molecule: O=c1cc(Cn2c(C3CC3)nc3ccccc32)c2ccc(F)c(F)c2[nH]1 ) is 0.9

# Ratio EC50 (molecule: O=c1cc(Cn2c(C3CCC3)nc3nccnc32)c2ccc(F)c(F)c2[nH]1 ) is 3.3
